Target: monomeric SARS-CoV-2 RBD with Flag peptide and 8xHis-tag (RBD-FH) (SARS-CoV-2, WA1 (Wuhan-like), UniProt P0DTC2)
Test: SPR
Settings: both partners purified
Some binders, each annotated with its measured kon.
recorded_metric: kon (M⁻¹ s⁻¹)

binder="1.29 Nb (VHH) VHH: QVQLVESGGGSVQAGGSLRLSCAASGYTINTDAVAWFRQAPGKGDERVAVIYTGSGNTNYADSVKGRFTISQDNAKNTVYLQMNSLKPEDTALYYCASGYYGASGYDFNNWGQGTQVTVSS" recorded_metric=kon observed=476000
binder="1.10 Nb (VHH) VHH: QVQLVESGGGSVQAGGSLRLSCAASGYTYSTCRKGWYRQAPGKERELVASITADGATYYLDSVKGRLTISQDNAKNTVYLQMNSLKPEDTAVYYCAASVKDFTCTFNSWGQGTQVTVSS" recorded_metric=kon observed=345000
binder="2.20 Nb (VHH) VHH: QVQLVESGGGSVQAGGSLRLSCAASGYTYNNYYMGWFRQAPGKEREGVAAINSDGLDTYVADSVKGRFTISRDNAKDTVHLQMNSLKPEDTAIYSCATGRTVYYSGYDFRLSVDDYWGQGTQVTVSS" recorded_metric=kon observed=1.3e+06
binder="1.26 Nb (VHH) VHH: QVQLVESGGGLVQAGGSLRLSCAATGYTWSSVCMGWFRQAPGKEREGVAGIPSGRNRPYYADSVKGRFTISQDNAKNAVFLLMNSLKPEDTAIYYCAPCSAPHDPEYNYWGQGTQVTVSS" recorded_metric=kon observed=2.44e+06

The origin of these recorded values is paper PMC9082315.
